# TEST: Phase 1 multiple ascending dose study (Compound 1 Test 102), healthy subjects
# EXPERIMENTAL_CONDITIONS: human, plasma, intravenous, 0.5 mg/kg

- COMPOUND_SMILES: "Cc1cccc(F)c1C(=O)Nc1cnc(-c2cc3c(cc2Cl)OC(F)(F)O3)cn1"
  RESULT_UNITS: "ng/mL"
  Cmax: 363

====

# TEST: Repeat-dose toxicity study in monkeys
# EXPERIMENTAL_CONDITIONS: in vivo; monkey, NOAEL 3 mg/kg/day; read-out: mean AUC24 h in monkey at the NOAEL
# Procedure: Hemolysis testing concluded that Compound 1 was compatible with human plasma and non-hemolytic in human blood. Plasma concentrations of compound rise steadily during the 4-hour infusion, with Tmax achieved at the end of infusion (4 hours). After the end of infusion, there is a rapid and prominent distribution phase followed by a prolonged period of residual drug levels. […]
QUANTITY_MEASURED: AUC(0-t) (ng·h/mL)

- COMPOUND_SMILES: "Cc1cccc(F)c1C(=O)Nc1cnc(-c2cc3c(cc2Cl)OC(F)(F)O3)cn1"
  OBSERVED_MEASUREMENT: 29000

====

# TEST: Phase 1 multiple ascending dose study (Compound 1 Test 102), healthy subjects
# EXPERIMENTAL_CONDITIONS: human, plasma, intravenous, 0.5 mg/kg
QUANTITY_MEASURED: AUC(0-t)

- COMPOUND_SMILES: "Cc1cccc(F)c1C(=O)Nc1cnc(-c2cc3c(cc2Cl)OC(F)(F)O3)cn1"
  OBSERVED_MEASUREMENT: "3.19 µg·h/mL"

====

# System: IL-1β released from human PBMCs
# TEST: Cytokine released from human PBMCs: IL-1β
# Assay type: cell-based
# EXPERIMENTAL_CONDITIONS: single replicates; read-out: Replicate IC50 values, IL-1β released from human PBMCs
# From the text: CRAC channels may play a proximal role in a calcium-calcineurin pathway leading to cytokine release in immune cells.
pIC50: −log10 of the molar value.
QUANTITY_MEASURED: pIC50

- COMPOUND_SMILES: "Cc1cccc(F)c1C(=O)Nc1cnc(-c2cc3c(cc2Cl)OC(F)(F)O3)cn1"
  OBSERVED_MEASUREMENT: 6.66

====

# Tested on: IL-1β released from human PBMCs
# TEST: Cytokine released from human PBMCs: IL-1β
# Type: cell-based
# EXPERIMENTAL_CONDITIONS: Homo sapiens, PBMC, single replicates; read-out: Replicate IC50 values, IL-1β released from human PBMCs
pIC50: −log10 of the molar value.

- COMPOUND_SMILES: "Cc1cccc(F)c1C(=O)Nc1cnc(-c2cc3c(cc2Cl)OC(F)(F)O3)cn1"
  STUDY_SYSTEM: "IL-1β released from human PBMCs"
  pIC50: 6.58

====

# Tested on: IL-10 released from human PBMCs
# TEST: Cytokine released from human PBMCs: IL-10
# Format: cell-based
# EXPERIMENTAL_CONDITIONS: PBMC, mean of replicates

- MOLECULE: "Cc1cccc(F)c1C(=O)Nc1cnc(-c2cc3c(cc2Cl)OC(F)(F)O3)cn1 [Compound 1]"
  IC50 / nM: 303
